target: Calcium-dependent protein kinase 4 (Plasmodium falciparum (isolate 3D7)); test: PfCDPK4 kinase inhibitors, biochemical, TCAMS library (AID 1159588); details: recombinant PfCDPK4, Kinase-Glo ATP depletion luminescence
Entries with a potency or affinity are not part of this list. Active and inactive are the calls of the source. Cut-off not given; nearly all actives show IC50 up to about 0.91 µM.
parameter: outcome

In [3]: df
Out[3]:
                                   compound                         target_under_test    result
0  NC(N)=Nc1nc(-c2cccc(NC(=O)CCCCCCCON3C(N)=NC(N)=NC34CCCCC4)c2)cs1  Calcium-dependent protein kinase 4 (Plasmodium falciparum (isolate 3D7))  inactive
1  O=C(Nc1ccc(-c2ccccc2)cc1)Nc1cccc(Cn2cnc(N3CCCNCC3)cc2=O)c1  Calcium-dependent protein kinase 4 (Plasmodium falciparum (isolate 3D7))  inactive
2  CCN1CCN(c2cc(C)c3cc(NC(=O)c4ccc([N+](=O)[O-])c(C)c4)ccc3n2)CC1  Calcium-dependent protein kinase 4 (Plasmodium falciparum (isolate 3D7))  inactive
3     COc1cc(CCCOc2c(N)nc(N)nc2N)cc(OC)c1OC  Calcium-dependent protein kinase 4 (Plasmodium falciparum (isolate 3D7))  inactive
4  Cc1nnsc1C(=O)Nc1ccc(-c2cccc(-c3nc4ccc(F)cc4[nH]3)c2)cc1  Calcium-dependent protein kinase 4 (Plasmodium falciparum (isolate 3D7))  inactive
5  O=c1cc(NCCCNCc2ccc(C(F)(F)F)cc2F)[nH]c2ccccc12  Calcium-dependent protein kinase 4 (Plasmodium falciparum (isolate 3D7))  inactive
6  O=C(Nc1cccc(F)c1)NC1CCN(c2ccnc3cc(Cl)ccc23)C1 (centres undefined)  Calcium-dependent protein kinase 4 (Plasmodium falciparum (isolate 3D7))  inactive
7  CS(=O)(=O)CCNCc1nc(-c2ccc3ncnc(Nc4ccc(OCc5ccccc5)c(Cl)c4)c3c2)cs1  Calcium-dependent protein kinase 4 (Plasmodium falciparum (isolate 3D7))  inactive
8  COc1cccc(C2CCN(CCN3CCC(CNC(=O)c4ccc(-c5ccc(C(F)(F)F)cc5)cc4)CC3)CC2)c1  Calcium-dependent protein kinase 4 (Plasmodium falciparum (isolate 3D7))  inactive

====

Each record here notes measured inhibition.
target: L-lactate dehydrogenase (Plasmodium falciparum (isolate CDC / Honduras)); assay: PfLDH activity inhibition – cell lysate, 3D7 strain, counter-screen for P. falciparum growth inhibition project (AID 2304);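 further: 0% = vehicle and 100% = reference inhibitor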; settings: P. falciparum 3D7 crude extract, LDH APAD/NBT absorbance; at 2 µM; hits give high values
parameter: inhibition (%)

In [3]: df
Out[3]:
                                    compound   parameter  quantitative_result
 0  O=C(NCc1ccc(Cl)c(Cl)c1)c1ccc(-c2nc3cc(F)c(F)cc3[nH]2)cc1  inhibition                   -2
 1  CCc1ccc(CN(CCCOc2cccc(CC(=O)NCc3cnc[nH]3)c2)Cc2ccc(-n3ccnc3)cc2)cc1  inhibition                   -2
 2  COc1cccc(C2CCN(CCN3CCC(NC(=O)c4ccc(-c5ccc(Cl)cc5)cc4)CC3)CC2)c1  inhibition                  -12
 3                 CCCCCCCCNCCCSCCCNCCCCCCCC  inhibition                   -3
 4  Cc1cc(F)ccc1Nc1nc(N(C)c2ccccc2)c2cccc(O)c2n1  inhibition                    2
 5              CCCCCCCNCCNc1cc(C)nc2ccccc12  inhibition                   -4
 6  OC(CNCc1cccc(Oc2ccc(Cl)cc2)c1)c1cc(C(F)(F)F)cc(C(F)(F)F)c1 (centres undefined)  inhibition                    8
 7  Cc1ccc(C)c(Sc2ccc(NC(=O)CN3CCN(C(=O)c4ccco4)CC3)cc2)c1  inhibition                    1
 8  O=C(NC1CCN(Cc2ccccc2)CC1)c1ccc(-c2nc3cc4ccccc4cc3[nH]2)s1  inhibition                   -1
 9  COc1ccc(-c2cc(-c3ccc(S(C)(=O)=O)cc3)cnc2N)cn1  inhibition                    0
10  CC(C)(C)OC(=O)N[C@@H](Cc1ccccc1)C(=O)Nc1cccc(-c2cccc(NC(=O)[C@H](Cc3ccccc3)NC(=O)OC(C)(C)C)c2)c1  inhibition                    6
11  Oc1ccc(CCNCCCCCCNCCc2ccc(Cl)cc2)c(Cl)c1O  inhibition                   -7
12  COc1ccc(-c2cnc(NCc3ccccc3)nc2)cc1CNC1CCN(C)CC1  inhibition                    1
13  O=C(NCC(CCN1CCC(c2c[nH]c3ccccc23)CC1)c1ccccc1)Nc1ccc(Cl)c(Cl)c1 (centres undefined)  inhibition                    5
14  CC(C)(C)c1ccc(CNC(=O)/C=C/c2ccc(CNC3CCNCC3)cc2)cc1  inhibition                    1
15  COc1ccc(CNCc2ccsc2)cc1-c1ccc(S(=O)(=O)NCCN2CCCC2)c(C)c1  inhibition                   -1
16          Cc1ccc(S(C)(=O)=O)cc1/C=C/C(=O)O  inhibition                    4
17  O=C(c1ccc(F)c(F)c1)N1CCOC(CCN2CCC(c3ccccc3)CC2)(c2ccc(Cl)c(Cl)c2)C1 (centres undefined)  inhibition                    2
18  Cc1ccc(NC(=O)c2ccc3ncccc3c2)cc1OC1CCN(Cc2ccsc2)CC1  inhibition                   -2
19  CCc1ccc(CN2CCC(CNC(=O)c3cc(-c4cccc(F)c4)cs3)C2)cc1 (centres undefined)  inhibition                    2
20  CC(=O)Nc1cccc(C(=O)Nc2cccc(-c3ccc(-c4nc5c(C)cccc5[nH]4)s3)c2)c1  inhibition                    4
21  CC(=O)N1N=C(c2cccs2)Sc2c1nc(-c1ccc(Cl)cc1)n2C(C)=O  inhibition                    0
22  CCCC1CCNC(C(O)c2ccnc3ccc(OC)cc23)C1 (centres undefined)  inhibition                   -3
23  COc1ccc(-c2nc(NC(=O)Cc3cccc(OC)c3)sc2C)cc1  inhibition                   -3
24  Cc1ccc2c(c1)NC[C@@]21CCN(C[C@@H](O)C2CCN(c3cc(C#N)ccn3)CC2)C[C@@H]1C  inhibition                   -2
25  CCOc1c(CNCCCCCCNCc2ccc3ccccc3c2OCC)ccc2ccccc12  inhibition                    6
26  O=C(Nc1cccc(CN2CCCN(CCc3ccccc3)CC2)c1)c1ccc(Cl)c(Cl)c1  inhibition                   -5
27  COc1cccc(NC(=O)Nc2cc(-c3ccc4[nH]ncc4c3)cc3c2CNC3=O)c1  inhibition                    5
28  Cc1cnccc1/C=C/c1cccc(OCCCN2CCc3ccc(S(C)(=O)=O)cc3CC2)c1  inhibition                    1
29  COc1cccc(CNC[C@@H](O)[C@H](Cc2ccccc2)NC(=O)c2cc(N3CCCC3=O)c3[nH]cc(C(C)C)c3c2)c1  inhibition                    3
30  Cc1cc(Nc2ccc(C)c(Cl)c2)n2nc(C(F)(F)F)nc2n1  inhibition                    2
31  Cc1cccc(CC2CC(=O)N(c3ccc([N+](=O)[O-])cc3)C2=O)c1 (centres undefined)  inhibition                    2
32  Cc1[nH]c(C)c(-c2ccc(-c3ccc(OCC(F)(F)F)cc3)nc2)c(=O)c1Cl  inhibition                    4
33  C(=NNc1nc2ccccc2[nH]1)c1ccccc1OCc1ccccc1  inhibition                    6
34  COc1cc(C2CCN(CCCCNC(=O)c3ccc(NC(=O)c4cc(C(F)(F)F)cc(C(F)(F)F)c4)cc3)CC2)ccc1OC(C)C  inhibition                    4
35  Cc1ccc(NC(=O)N2CCN(CCCCCNC(=O)/C=C/c3ccc(Cl)c(Cl)c3)CC2)cc1C  inhibition                    0
36  COc1cc(-c2cc3cc(Cl)c(Cl)cc3[nH]2)ccc1C(=O)NC1CCN(Cc2ccccc2)CC1  inhibition                   -3
37           Nc1c2ccccc2nc2cc(C(F)(F)F)ccc12  inhibition                    1
38  N#Cc1ccc(CN2CCC(Oc3ccc(NC(=O)c4ccco4)cc3Cl)CC2)cc1  inhibition                    6

From: PubChem BioAssay
